- Tested on: COR-L23
- procedure-text: relative viability (nuclei count vs DMSO), 5 days (fraction); higher = more cells survive
- cond: first compound 0.03162 µM
Measured relative viability values are reported for all entries that follow.

compound	relative viability
O=c1cc(N2CCOCC2)oc2c(-c3cccc4c3sc3ccccc34)cccc12 + CC(=O)c1c(C)c2cnc(Nc3ccc(N4CCNCC4)cn3)nc2n(C2CCCC2)c1=O [Palbociclib] (partner 0.5 µM)	0.303
O=c1cc(N2CCOCC2)oc2c(-c3cccc4c3sc3ccccc34)cccc12 + CC1(C)CCC(c2ccc(Cl)cc2)=C(CN2CCN(c3ccc(C(=O)NS(=O)(=O)c4ccc(N[C@H](CCN5CCOCC5)CSc5ccccc5)c(S(=O)(=O)C(F)(F)F)c4)cc3)CC2)C1 [Navitoclax] (partner 0.5 µM)	1.02
CCN(CC)CCCCNc1ncc2cc(-c3cc(OC)cc(OC)c3)c(NC(=O)NC(C)(C)C)nc2n1 + COc1cc2c(Oc3ccc(NC(=O)C4(C(=O)Nc5ccc(F)cc5)CC4)cc3F)ccnc2cc1OCCCN1CCOCC1 [Foretinib] (partner 0.25 µM)	0.981
O=c1cc(N2CCOCC2)oc2c(-c3cccc4c3sc3ccccc34)cccc12 + N=C(N)NC(=N)NCCc1ccccc1 [Phenformin] (partner 250 µM)	0.466
O=c1cc(N2CCOCC2)oc2c(-c3cccc4c3sc3ccccc34)cccc12 + O=C(CCCCCCC(=O)Nc1ccccc1)NO [Vorinostat] (partner 1 µM)	0.503
